Test system: E. coli TESEC Mtb Alr
Assay: growth (OD600 after 10 h); higher = more growth (less inhibition)
Conditions: arabinose 10000 nM; compound 0.1 mM; raw OD600 reference: median of DMSO wells 0.264, cell-free background 0.041
Where a name gives a salt, the structure may show the parent alone.
quantity-kind: growth
Answer using only a numeral; do not append any unit.

Example compounds with recorded growth:
INSERT INTO results (compound, value_measured) VALUES
  ('COc1ccc2c(c1)c(CC(=O)OCC(=O)O)c(C)n2C(=O)c1ccc(Cl)cc1', 0.195),
  ('CC(=O)Oc1ccccc1C(=O)Oc1ccccc1C(=O)O', 0.266),
  ('COc1ccccc1OCC(O)CO (centres undefined)', 0.274),
  ('COC(=O)CCc1ccc(OCC(O)CNC(C)C)cc1 (centres undefined) [Esmolol hydrochloride]', 0.254),
  ('CC(=O)N1CCN(c2ccc(OCC3COC(Cn4ccnc4)(c4ccc(Cl)cc4Cl)O3)cc2)CC1 (centres undefined)', 0.0424),
  ('CCCCC1=NC2(CCCC2)C(=O)N1Cc1ccc(-c2ccccc2-c2nnn[nH]2)cc1', 0.21);

-- ask For E. coli TESEC Mtb Alr, give growth of the listed compound: CCOC(=O)C(C)(C)Oc1ccc(Cl)cc1 [Clofibrate]
-- reply 0.268

-- ask For E. coli TESEC Mtb Alr, give growth of the listed compound: `C[C@H]1NC(=O)NC1=O`
-- reply 0.268

-- ask For E. coli TESEC Mtb Alr, give growth of the listed compound: CC(C)C(=O)Nc1ccc([N+](=O)[O-])c(C(F)(F)F)c1 [Flutamide]
-- reply 0.161
